system: SK-MEL-2; assay: NCI tumour cell line growth inhibition, 48 h
The source made the active and inactive calls. No stated cut-off is given here; in the data, active = GI50 up to about 1.1 µM and inactive = higher.
Classes used: label 1 = active, label 0 = inactive

>>> class_label("Cc1nnc2cc(C(=O)O)c3ccccc3n2c1=O")
"label 0"
>>> class_label("Cn1c(CCC#N)nc2ccc(Br)cc2c1=O")
"label 0"
>>> class_label("COc1cc(O)c2c(c1)O[C@@H]1OCC[C@H]21")
"label 0"
>>> class_label("CC(CCC(=O)O)(c1cc(Br)c(O)c(Br)c1)c1cc(Br)c(O)c(Br)c1")
"label 0"
>>> class_label("COc1ccc2c(c1)c(=O)c1c(NCCNCCO)ccc3c(=O)n(CCN(C)C)c(=O)n2c31")
"label 1"
>>> class_label("COc1cccc2c(Nc3ccc(S(=O)(=O)N=C(N)N)cc3)c3ccc([N+](=O)[O-])cc3nc12")
"label 0"
>>> class_label("CC(=O)/N=C1/N(/C=C2\\C(=O)Oc3ccccc3C2=O)C(=O)/C(=C/c2ccc(Cl)cc2Cl)N1C")
"label 0"
>>> class_label("C[C@]12CC[C@H](O)CC1=CC[C@@H]1[C@@H]2CC[C@]2(C)/C(=N/OCCN3CCCC3)CC[C@@H]12")
"label 0"
>>> class_label("Cc1cccc2nc3cccc(C(=O)NCCC[N+](C)(CCCNC(=O)c4cccc5nc6cccc(C)c6nc45)Cc4ccc([N+](=O)[O-])n4C)c3nc12")
"label 0"
>>> class_label("COc1cc(C2C(C(=O)Nc3cc(F)c(F)cc3F)=C(C)NC(C)=C2C(=O)Nc2cc(F)c(F)cc2F)ccc1O")
"label 0"
>>> class_label("COc1ccc(N2C(=O)C3CC4=CC(=O)C[C@H]4[C@H]32)cc1 (stereo partly specified)")
"label 0"
